Listed next: entries and their corresponding PI(4)P.
System: PI(4)P liposomes
procedure-text: Yeast proteome chip probed with PI(4)P liposomes
test-context: liposome binding signal on yeast proteome chip, Cy3-streptavidin detection
endpoint: PI(4)P

* MAG1: yeast GST-HisX6 fusion protein on proteome chip (protein, UniProt P22134 1-296, looked up, GST-His6 tag, yeast GST-HisX6 fusion protein on proteome chip) DNA-3-methyladenine …: MKLKREYDELIKADAVKEIAKELGSRPLEVALPEKYIARHEEKFNMACEHILEKDPSLFPILKNNEFTLYLKETQVPNTLEDYFIRLASTILSQQISGQAAESIKARVVSLYGGAFPDYKILFEDFKDPAKCAEIAKCGLSKRKMIYLESLAVYFTEKYKDIEKLFGQKDNDEEVIESLVTNVKGIGPWSAKMFLISGLKRMDVFAPEDLGIARGFSKYLSDKPELEKELMRERKVVKKSKIKHKKYNWKIYDDDIMEKCSETFSPYRSVFMFILWRLASTNTDAMMKAEENFVKS | 21.34
* ROT1: yeast GST-HisX6 fusion protein on proteome chip (protein, UniProt Q03691 25-256, looked up, GST-His6 tag, yeast GST-HisX6 fusion protein on proteome chip) Protein ROT1: EDESNSIYGTWSSKSNQVFTGPGFYDPVDELLIEPSLPGLSYSFTEDGWYEEATYQVSGNPRNPTCPMASLIYQHGTYNISENGTLVLNPIEVDGRQLFSDPCNDDGVSTYSRYNQTETFKEYAVGIDPYHGIYTLQLYQYDGTPMQPLYLAYRPPMMLPTETLNPTSSATSTDDPSSNKKRSLRSLVRRSLENRHKTNAIKRQNTSFLTSNAIWYISAGMLGVGSLLFLAF | 52.04
* APA2: yeast GST-HisX6 fusion protein on proteome chip (protein, UniProt P22108 1-325, looked up, GST-His6 fusion tag, yeast GST-HisX6 fusion protein on proteome chip) Diadenosine …: MIEENLKQKIHDKFVAAKKNGHLKVTHAESKKLKDPQTTTQYWVTFAPSLALKPDANKNSDSKAEDPFANPDEELVVTEDLNGDGEYKLLLNKFPVVPEHSLLVTSEFKDQRSALTPSDLMTAYNVLCSLQGDKDDDVTCERYLVFYNCGPHSGSSQDHKHLQIMQMPEKFIPFQDVLCNGKDHFLPTFNAEPLQDDKVSFAHFVLPLPESSDQVDEDLLAMCYVSLMQRALTFFQDWTNESPELTKSYNVLLTKKWICVVPRSHAKSGPPLMLNINSTGYCGMILVKDREKLENLTEDPHLVDKSLLQCGFPNTAGQKPTEYHY | 43.98
* TFB3: yeast GST-HisX6 fusion protein on proteome chip (protein, UniProt Q03290 1-321, looked up, GST-His6 tag, yeast GST-HisX6 fusion protein on proteome chip) RNA polymerase II …: MLMDEYEENKDMCPICKTDRYLSPDVKFLVNPECYHRICESCVDRIFSLGPAQCPYKGCDKILRKNKFKTQIFDDVEVEKEVDIRKRVFNVFNKTIDDFNGDLVEYNKYLEEVEDIIYKLDHGIDVAKTEEKLRTYEELNKQLIMNNLERSRTEIESFEQRQKFEKEMKLKKRLLERQIEEEERMNKEWTKKEIVNRLSTTTQDINETIEGVKNTVKLKKSSARRKLEELNRVLKNNPYFNSNVNVQNSRLKDAVPFTPFNGDREAHPRFTLKGSVYNDPFIKDLEHRKEFIASGFNTNYAYERVLTEAFMGLGCVISEEL | 43.98

Every entry's value here was drawn from patent US20050182242A1.
